# assaySystem: human P-glycoprotein (Homo sapiens (Human), UniProt P08183)
# Sequence (P08183 whole entry): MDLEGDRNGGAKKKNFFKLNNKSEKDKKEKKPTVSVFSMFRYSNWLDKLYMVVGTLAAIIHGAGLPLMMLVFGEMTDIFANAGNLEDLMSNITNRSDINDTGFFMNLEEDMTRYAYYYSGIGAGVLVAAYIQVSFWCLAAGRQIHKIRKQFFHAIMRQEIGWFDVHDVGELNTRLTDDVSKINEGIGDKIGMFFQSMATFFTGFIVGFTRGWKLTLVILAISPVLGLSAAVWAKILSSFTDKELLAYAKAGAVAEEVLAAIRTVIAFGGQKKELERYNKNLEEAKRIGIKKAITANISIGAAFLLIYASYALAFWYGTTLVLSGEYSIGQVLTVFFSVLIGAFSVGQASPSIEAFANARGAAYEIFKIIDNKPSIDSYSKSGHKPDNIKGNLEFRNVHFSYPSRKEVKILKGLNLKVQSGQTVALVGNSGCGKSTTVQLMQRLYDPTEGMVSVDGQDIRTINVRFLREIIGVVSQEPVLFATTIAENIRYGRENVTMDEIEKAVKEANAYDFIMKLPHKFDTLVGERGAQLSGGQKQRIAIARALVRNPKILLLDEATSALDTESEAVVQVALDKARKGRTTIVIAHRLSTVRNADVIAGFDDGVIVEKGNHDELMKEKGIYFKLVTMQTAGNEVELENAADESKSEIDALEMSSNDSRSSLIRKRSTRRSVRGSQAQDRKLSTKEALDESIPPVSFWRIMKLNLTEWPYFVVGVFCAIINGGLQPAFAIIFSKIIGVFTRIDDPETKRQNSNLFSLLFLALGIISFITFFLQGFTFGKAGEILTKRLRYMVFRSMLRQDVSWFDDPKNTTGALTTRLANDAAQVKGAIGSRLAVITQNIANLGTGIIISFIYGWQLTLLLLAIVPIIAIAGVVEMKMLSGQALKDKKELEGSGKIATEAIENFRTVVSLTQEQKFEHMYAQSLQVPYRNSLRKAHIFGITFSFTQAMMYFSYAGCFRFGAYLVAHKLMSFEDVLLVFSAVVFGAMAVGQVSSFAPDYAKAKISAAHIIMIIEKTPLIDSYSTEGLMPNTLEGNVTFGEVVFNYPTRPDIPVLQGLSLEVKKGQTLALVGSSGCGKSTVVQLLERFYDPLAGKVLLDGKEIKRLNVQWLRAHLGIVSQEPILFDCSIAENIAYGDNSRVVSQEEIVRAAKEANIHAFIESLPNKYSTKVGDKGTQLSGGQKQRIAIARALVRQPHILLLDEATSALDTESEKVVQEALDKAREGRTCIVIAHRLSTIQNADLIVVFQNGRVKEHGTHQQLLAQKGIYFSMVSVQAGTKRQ
# assayName: Pgp Mdr1 efflux ratio
# Assay type: in vitro ADME
# measurementParameters: efflux ratio, human P-glycoprotein
Recorded Pgp Mdr1 ER values for a group of compounds are listed next.
Give a plain numeric answer without units written out.

INSERT INTO measurements (smilesinput, endpointresult) VALUES
  ('CN1C(=N)N[C@](C)(c2sc(-c3cccc(-c4cnco4)c3)cc2F)CS1(=O)=O', 1.8),
  ('CN1C(=N)N[C@](C)(c2sc(-c3cc(F)cc(-c4cnco4)c3)cc2Cl)CS1(=O)=O', 0.90),
  ('CN1C(=N)N[C@](C)(c2sc3c(-c4ccc(-n5cccn5)nc4)nccc3c2Cl)CS1(=O)=O', 0.78),
  ('CN1C(=N)N[C@](C)(c2sc(-c3cccc(-c4nnc(C5CC5)o4)c3)cc2F)CS1(=O)=O', 0.53),
  ('CN1C(=N)N[C@](C)(c2sc(-c3cccc(-c4ccno4)c3)cc2F)CS1(=O)=O', 1.6),
  ('CN1C(=N)N[C@](C)(c2sc(-c3cccc(-c4ncco4)c3)cc2Cl)CS1(=O)=O', 0.49);

Input: Please look up its Pgp Mdr1 ER: CN1C(=N)N[C@](C)(c2sc(-c3cccc(-c4nnc(C5CC5)o4)c3)cc2Cl)CS1(=O)=O
Output: 1.0

###

What follows is a record of pKi for human autoBACE-2 (Homo sapiens (Human), UniProt Q9Y5Z0).
Expect pKi as a plain number equal to -log10 of the molar concentration.

Input: Item: Cc1nc(-c2cccc(-c3cc(F)c([C@]4(C)CS(=O)(=O)N(C)C(=N)N4)s3)c2)no1 Test system: human autoBACE-2 (Homo sapiens (Human), UniProt Q9Y5Z0) Read-out: pKi Value: ?
Output: 8.96

Input: Please provide the recorded pKi for Cc1cnc(-c2ccc(-c3cccc4c(F)c([C@]5(C)CS(=O)(=O)N(C)C(=N)N5)sc34)cc2)nc1 , tested on human autoBACE-2 (Homo sapiens (Human), UniProt Q9Y5Z0).
Sequence (Q9Y5Z0 63-473 limits assumed): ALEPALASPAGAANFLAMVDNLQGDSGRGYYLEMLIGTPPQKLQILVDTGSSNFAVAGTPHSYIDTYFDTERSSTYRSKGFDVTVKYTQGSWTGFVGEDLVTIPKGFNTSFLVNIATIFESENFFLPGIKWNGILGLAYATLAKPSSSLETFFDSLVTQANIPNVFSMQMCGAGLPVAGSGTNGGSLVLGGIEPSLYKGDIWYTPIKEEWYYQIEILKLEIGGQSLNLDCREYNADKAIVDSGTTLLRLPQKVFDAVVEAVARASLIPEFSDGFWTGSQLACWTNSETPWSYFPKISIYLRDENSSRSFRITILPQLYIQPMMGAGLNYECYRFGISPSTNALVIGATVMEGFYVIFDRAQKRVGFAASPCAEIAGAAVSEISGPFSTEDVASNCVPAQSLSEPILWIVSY
Output: 5.42

Input: For the record COc1cnn(-c2ccc(-c3nccc4c(Cl)c([C@]5(C)CS(=O)(=O)N(C)C(=N)N5)sc34)c(F)c2)c1 , what value of pKi is listed for human autoBACE-2 (Homo sapiens (Human), UniProt Q9Y5Z0)?
Output: 6.57

Input: Item Cc1cn(-c2cc(-c3cc(F)c([C@]4(C)CS(=O)(=O)N(C)C(=N)N4)s3)ccn2)cn1 with human autoBACE-2 (Homo sapiens (Human), UniProt Q9Y5Z0) - pKi?
Output: 7.59

Input: Query pKi on human autoBACE-2 (Homo sapiens (Human), UniProt Q9Y5Z0) for CN1C(=N)N[C@](C)(c2cc(-c3cc(F)cc(-c4nnco4)c3)cs2)CS1(=O)=O
Output: 8.19

Input: Value wanted: pKi (human autoBACE-2 (Homo sapiens (Human), UniProt Q9Y5Z0)) of entry Cc1nnc(-c2cccc(-c3cc(Cl)c([C@]4(C)CS(=O)(=O)N(C)C(=N)N4)s3)c2)o1
Output: 8.42

Input: Form: Entry = CN1C(=N)N[C@](C)(c2sc(-c3cccc(-c4ccno4)c3)cc2Cl)CS1(=O)=O | System = human autoBACE-2 (Homo sapiens (Human), UniProt Q9Y5Z0) | pKi = ____
Output: 8.62

###

# assaySystem: soluble human BACE1 catalytic domain (Homo sapiens (Human))
# Sequence (P56817 75-416): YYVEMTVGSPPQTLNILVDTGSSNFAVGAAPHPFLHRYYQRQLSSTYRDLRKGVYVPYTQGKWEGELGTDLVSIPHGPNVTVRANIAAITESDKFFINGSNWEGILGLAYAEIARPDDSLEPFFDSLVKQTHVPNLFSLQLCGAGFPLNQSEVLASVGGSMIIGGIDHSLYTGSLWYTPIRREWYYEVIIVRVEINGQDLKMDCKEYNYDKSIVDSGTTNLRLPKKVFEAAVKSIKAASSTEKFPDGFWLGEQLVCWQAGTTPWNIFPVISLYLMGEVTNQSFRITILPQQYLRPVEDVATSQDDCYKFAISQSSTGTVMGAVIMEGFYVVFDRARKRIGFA
pKi: −log10 of the molar value.
Label scheme, based on pKi: lower segment (below 6), middle segment (6 to below 7), upper segment (7 or more)

Please review the following examples before continuing.
INSERT INTO assay_data (smilesinput, label) VALUES
  ('CN1C(=N)N[C@](C)(c2sc(-c3ccc(-c4cccnc4)cc3)cc2Cl)CS1(=O)=O', 'lower segment'),
  ('CN1C(=N)N[C@](C)(c2sc(-c3cccc(-c4ncon4)c3)cc2Cl)CS1(=O)=O', 'upper segment'),
  ('CN1C(=N)N[C@](C)(c2sc(-c3ccnc(-c4ccncc4)c3)cc2F)CS1(=O)=O', 'middle segment'),
  ('Cc1cnc(-c2ccc(-c3cccc4c(F)c([C@]5(C)CS(=O)(=O)N(C)C(=N)N5)sc34)cc2)nc1', 'lower segment'),
  ('CN1C(=N)N[C@](C)(c2sc3c(-c4ccc(-c5nccs5)cc4)nccc3c2Cl)CS1(=O)=O', 'middle segment');

Input: Which band does Cc1cnn(-c2ccc(-c3nccc4c(Cl)c([C@]5(C)CS(=O)(=O)N(C)C(=N)N5)sc34)c(F)c2)c1 fall in?
Output: middle segment

Input: Band assignment needed for CN1C(=N)N[C@](C)(c2sc(-c3ccnc(-c4nc(C5CC5)no4)c3)cc2F)CS1(=O)=O please.
Output: middle segment

Input: Where would CN1C(=N)N[C@](C)(c2sc3c(-c4ccc(C5CC5)nc4)nccc3c2Cl)CS1(=O)=O land among the classes by reported pKi?
Output: middle segment

Input: Kindly state the category for this molecule: CN1C(=N)N[C@](C)(c2sc(-c3ccc(-n4ccnn4)cc3)cc2Cl)CS1(=O)=O
Output: lower segment

Input: For CN1C(=N)N[C@](C)(c2sc(-c3ccc(F)c(-c4nnco4)c3)cc2F)CS1(=O)=O , which pKi bin applies?
Output: upper segment

Input: Pick a category. Item: CN1C(=N)N[C@](C)(c2sc3c(-c4ccc(-n5nccn5)cc4)cccc3c2F)CS1(=O)=O
Output: lower segment

###

# assaySystem: soluble human BACE1 catalytic domain (Homo sapiens (Human))
readoutName: Ki (nM)
Quick note: give the figure in nM, leave out the unit.

INSERT INTO assay_data (smilesinput, endpointresult) VALUES
  ('CN1C(=N)N[C@](C)(c2sc(-c3cccc(-n4ccnc4)n3)cc2Cl)CS1(=O)=O', 429),
  ('CCc1cnn(-c2ccc(-c3nccc4c(Cl)c([C@]5(C)CS(=O)(=O)N(C)C(=N)N5)sc34)c(F)c2)c1', 229),
  ('Cc1noc(-c2cccc(-c3cc(Cl)c([C@]4(C)CS(=O)(=O)N(C)C(=N)N4)s3)c2)n1', 25.9);

Input: Record request: Ki value, item CN1C(=N)N[C@](C)(c2sc(-c3cc(F)cc(-c4nnco4)c3)cc2Cl)CS1(=O)=O
Output: 0.5

###

# assaySystem: human P-glycoprotein (Homo sapiens (Human))
# assayName: Pgp Mdr1 efflux ratio
# Type: in vitro ADME
# measurementParameters: efflux ratio, human P-glycoprotein
readoutName: Pgp Mdr1 ER
The answer should be a number; do not append a unit.

INSERT INTO measurements (molecule, assaysystem, readoutname, endpointresult) VALUES
  ('Cc1noc(-c2cccc(-c3cc(F)c([C@]4(C)CS(=O)(=O)N(C)C(=N)N4)s3)c2)n1 [Example 38]', 'human P-glycoprotein (Homo sapiens (Human))', 'Pgp Mdr1 ER', 1.7),
  ('CN1C(=N)N[C@](C)(c2sc(-c3cccc(-c4ncco4)c3)cc2F)CS1(=O)=O [Example 7]', 'human P-glycoprotein (Homo sapiens (Human))', 'Pgp Mdr1 ER', 1.7),
  ('CN1C(=N)N[C@](C)(c2sc(-c3cccc(-c4ncon4)c3)cc2Cl)CS1(=O)=O [Example 46]', 'human P-glycoprotein (Homo sapiens (Human))', 'Pgp Mdr1 ER', 0.70);

Input: Item under review: Cc1nc(-c2cccc(-c3cc(F)c([C@]4(C)CS(=O)(=O)N(C)C(=N)N4)s3)c2)no1 [Example 42] . Reported Pgp Mdr1 ER?
Output: 1.2

Input: // Pgp Mdr1 ER lookup, key: CN1C(=N)N[C@](C)(c2sc(-c3cc(F)cc(-c4cnco4)c3)cc2F)CS1(=O)=O [Example 25]
Output: 1.1

Input: Look at this molecule and give its reported Pgp Mdr1 ER. Cc1nc(-c2cccc(-c3cc(Cl)c([C@]4(C)CS(=O)(=O)N(C)C(=N)N4)s3)c2)no1 [Example 41]
Output: 0.34

Input: Item CN1C(=N)N[C@](C)(c2sc(-c3cccc(-c4cnco4)c3)cc2Cl)CS1(=O)=O [Example 11] has what recorded Pgp Mdr1 ER?
Output: 1.3

Input: Quick one: Pgp Mdr1 ER of CN1C(=N)N[C@](C)(c2sc(-c3cccc(-c4ncon4)c3)cc2F)CS1(=O)=O [Example 47] ?
Output: 1.7

###

# assaySystem: human autoBACE-2 (Homo sapiens (Human), UniProt Q9Y5Z0)
readoutName: pKi
A value of pKi is the negative decimal logarithm of a concentration given in moles per litre.

Examples with their reported pKi follow.
INSERT INTO measurements (compound, endpointresult) VALUES
  ('CN1C(=N)N[C@](C)(c2sc(-c3cccc(-c4nnco4)c3)cc2Cl)CS1(=O)=O [Example 1]', 8.22),
  ('CN1C(=N)N[C@](C)(c2sc3c(-c4ccc(-n5cccn5)cc4)cccc3c2F)CS1(=O)=O [Example 89]', 7.17),
  ('CN1C(=N)N[C@](C)(c2cc(-c3cncc(-c4cnco4)c3)cs2)CS1(=O)=O [Example 22]', 7.01),
  ('CN1C(=N)N[C@](C)(c2sc3c(-c4ccc(-c5nccs5)cc4)cccc3c2F)CS1(=O)=O [Example 91]', 5.87),
  ('CN1C(=N)N[C@](C)(c2sc3c(-c4ccc(-c5ccc(F)cc5F)nc4)cccc3c2F)CS1(=O)=O [Example 82]', 7.21),
  ('CN1C(=N)N[C@](C)(c2sc(-c3ccc(N4CCOCC4)nc3)cc2Cl)CS1(=O)=O [Example 66]', 5.74);

Input: What measured pKi is associated with CN1C(=N)N[C@](C)(c2ncc(-c3cccc(-c4nnco4)c3)s2)CS1(=O)=O [Example 27] on human autoBACE-2 (Homo sapiens (Human), UniProt Q9Y5Z0)?
Output: 6.82

Input: For the record CN1C(=N)N[C@](C)(c2sc(-c3cccc(-c4nc(C5CC5)no4)c3)cc2F)CS1(=O)=O [Example 40] , what value of pKi is listed for human autoBACE-2 (Homo sapiens (Human), UniProt Q9Y5Z0)?
Output: 8.02

Input: What reported pKi corresponds to CN1C(=N)N[C@](C)(c2cc(-c3cccc(-c4nnco4)c3)cs2)CS1(=O)=O [Example 19] on human autoBACE-2 (Homo sapiens (Human), UniProt Q9Y5Z0)?
Output: 7.28

Input: API: value(readout=pKi, system=human autoBACE-2 (Homo sapiens (Human), UniProt Q9Y5Z0)) for record CN1C(=N)N[C@](C)(c2sc(-c3ccc(F)c(-c4nnco4)c3)cc2Cl)CS1(=O)=O [Example 33]
Output: 8.00

Input: # get_value(readout= pKi, system= human autoBACE-2 (Homo sapiens (Human), UniProt Q9Y5Z0)) for CN1C(=N)N[C@](C)(c2sc(-c3ccnc(-c4ccccc4)c3)cc2F)CS1(=O)=O [Example 54]
Output: 7.92

Input: Please provide the recorded pKi for CN1C(=N)N[C@](C)(c2sc(-c3cc(-c4nnco4)ncc3F)cc2F)CS1(=O)=O [Example 59] , tested on human autoBACE-2 (Homo sapiens (Human), UniProt Q9Y5Z0).
Output: 7.04
